# system.tested: T1, Recombinant Human FGFR2 alpha (IIIc) Fc Chimera Protein, CF (R&D systems, 712-FR-050) (human, UniProt P21802 22-377)
# T1 construct: bought; not shown: Fc part of the chimera
# protocol.notes: ELISA on plate-bound FGFR2-Fc
Bridge positions count the residues as written; N and C are the ends. Ends that are not written are not given here. COCH2 = acetyl group that carries the bridge
endpoint.label: ELISA luminescence signal at 10 nmol/L peptide, relative to SEQ ID NO: 47 (=1)

Which measured ELISA luminescence signal at 10 nmol/L peptide, relative to SEQ ID NO: 47 (=1) value corresponds to YCEENYLDHEQYQYFIYFK(COCH2)Y (thioether 2-19 (inferred)) [cyclic peptide SEQ ID NO: 235] ?
≥ 0.7 ratio

What about this binder? GCYWNEVQYYYLQQYK(COCH2)Q (thioether 2-16 (inferred)) [cyclic peptide SEQ ID NO: 48]
≥ 0.7 ratio

Would you kindly look at the next entry?
Which measured ELISA luminescence signal at 10 nmol/L peptide, relative to SEQ ID NO: 47 (=1) value corresponds to QCEYALQYYRFYVAQRHWVDK(COCH2)L (thioether 2-21 (inferred)) [cyclic peptide SEQ ID NO: 412] ?
0.1 to 0.5 ratio
